# method: in vivo
# Set-up: species or system mice
# study conditions: female, BALB/c nude, mouse, iv, 20 pmol, total radioactivity, uptake in A431-CCK2R xenografts
metric: tissue uptake at 1 h (%ID/g)
Give bare numbers, in %ID/g.

Form field: reported tissue uptake at 1 h of CCCC[C@@H](C(=O)N[C@@H](CC(=O)O)C(=O)N[C@@H](Cc1cccc2ccccc12)C(N)=O)N(C)C(=O)[C@H](Cc1c[nH]c2ccccc12)NC(=O)CCNC(=O)CC(O)CNC(=O)CC(O)CNC(=O)CN1CCN(CC(=O)O)CCN(CC(=O)O)CCN(CC(=O)O)CC1 (stereo partly shown) [[^177Lu]Lu-2, metal not drawn]
56.3

----------
# method: in vivo
# Design: species or system mice
# study conditions: female, BALB/c nude, mouse, iv, 20 pmol, total radioactivity, Tumor-to-kidney ratio
metric: tissue to tissue ratio at 1 h

Value lookup for tissue to tissue ratio at 1 h; key = CCCC[C@@H](C(=O)N[C@@H](CC(=O)O)C(=O)N[C@@H](Cc1cccc2ccccc12)C(N)=O)N(C)C(=O)[C@H](Cc1c[nH]c2ccccc12)NC(=O)CCNC(=O)CC(O)CNC(=O)CC(O)CNC(=O)CN1CCN(CC(=O)O)CCN(CC(=O)O)CCN(CC(=O)O)CC1 (stereo partly shown) [[^177Lu]Lu-2, metal not drawn]
19.8

----------
# method: in vivo
# Parameters: species or system mice
# study conditions: female, BALB/c nude, mouse, iv, 20 pmol, total radioactivity, uptake in stomach
metric: tissue uptake at 168 h (%ID/g)
Answers are plain numbers, in %ID/g.

I have this compound here, CCCC[C@@H](C(=O)N[C@@H](CC(=O)O)C(=O)N[C@@H](Cc1cccc2ccccc12)C(N)=O)N(C)C(=O)[C@H](Cc1c[nH]c2ccccc12)NC(=O)CCNC(=O)CC(O)CNC(=O)CC(O)CNC(=O)CN1CCN(CC(=O)O)CCN(CC(=O)O)CCN(CC(=O)O)CC1 (stereo partly shown) [[^177Lu]Lu-2, metal not drawn] , and I need its recorded tissue uptake at 168 h.
0.88

----------
# method: in vivo
# Set-up: species or system mice
# study conditions: female, BALB/c nude, mouse, iv, 20 pmol, total radioactivity, uptake in liver
metric: tissue uptake at 168 h (%ID/g)
One number for each entry, in %ID/g.

Record request: tissue uptake at 168 h value, item CCCC[C@@H](C(=O)N[C@@H](CC(=O)O)C(=O)N[C@@H](Cc1cccc2ccccc12)C(N)=O)N(C)C(=O)[C@H](Cc1c[nH]c2ccccc12)NC(=O)CCNC(=O)CC(O)CNC(=O)CC(O)CNC(=O)CN1CCN(CC(=O)O)CCN(CC(=O)O)CCN(CC(=O)O)CC1 (stereo partly shown) [[^177Lu]Lu-2, metal not drawn]
0.06

----------
# method: Biodistribution blocking experiment with 1000-fold excess of non-radiolabeled peptide
# Type: in vivo, mice
# study conditions: female, BALB/c nude, mouse, blood, iv, total radioactivity, 4 h p.i., 1000-fold excess of non-radiolabeled peptide, n=1; read-out: uptake in blood, blocking
metric: tissue uptake at 4 h (%ID/g)
Answers are plain numbers, in %ID/g.

// returns reported tissue uptake at 4 h for input CCCC[C@@H](C(=O)N[C@@H](CC(=O)O)C(=O)N[C@@H](Cc1cccc2ccccc12)C(N)=O)N(C)C(=O)[C@H](Cc1c[nH]c2ccccc12)NC(=O)CNC(=O)[C@H](Cc1ccc(O)cc1)NC(=O)[C@H](C)NC(=O)[C@@H](CCC(=O)O)NC(=O)CN1CCN(CC(=O)O)CCN(CC(=O)O)CCN(CC(=O)O)CC1 [[^177Lu]Lu-DOTA-MGS5, metal not drawn, reference compound]
0.09

----------
# method: in vivo
# Design: species or system mice
# study conditions: female, BALB/c nude, mouse, iv, 20 pmol, total radioactivity, uptake in A431-CCK2R xenografts
metric: tissue uptake at 72 h
Remember to follow the number with its unit.

May I ask what tissue uptake at 72 h has been recorded for CCCC[C@@H](C(=O)N[C@@H](CC(=O)O)C(=O)N[C@@H](Cc1cccc2ccccc12)C(N)=O)N(C)C(=O)[C@H](Cc1c[nH]c2ccccc12)NC(=O)CCNC(=O)CC(O)CNC(=O)CC(O)CNC(=O)CN1CCN(CC(=O)O)CCN(CC(=O)O)CCN(CC(=O)O)CC1 (stereo partly shown) [[^177Lu]Lu-2, metal not drawn] ?
12.5 %ID/g

----------
# method: Biodistribution blocking experiment with 1000-fold excess of non-radiolabeled peptide
# Format: in vivo, mice
# study conditions: female, BALB/c nude, mouse, in vivo, iv, total radioactivity, uptake in heart, blocking
metric: tissue uptake at 4 h (%ID/g)
Numbers only, in %ID/g.

GET /values?readout=tissue uptake at 4 h&item= CCCC[C@@H](C(=O)N[C@@H](CC(=O)O)C(=O)N[C@@H](Cc1cccc2ccccc12)C(N)=O)N(C)C(=O)[C@H](Cc1c[nH]c2ccccc12)NC(=O)CCNC(=O)CC(O)CNC(=O)CC(O)CNC(=O)CN1CCN(CC(=O)O)CCN(CC(=O)O)CCN(CC(=O)O)CC1 (stereo partly shown) [[^177Lu]Lu-2, metal not drawn]
0.04

----------
# method: Protein binding in human serum by Sephadex G-50 size-exclusion chromatography
# Assay type: in vitro ADME
# study conditions: human serum; time point not given
metric: fraction unbound

Fill in the blank: the reported fraction unbound of CCCC[C@@H](C(=O)N[C@@H](CC(=O)O)C(=O)N[C@@H](Cc1cccc2ccccc12)C(N)=O)N(C)C(=O)[C@H](Cc1c[nH]c2ccccc12)NC(=O)CNC(=O)[C@H](Cc1ccc(O)cc1)NC(=O)[C@H](C)NC(=O)[C@@H](CCC(=O)O)NC(=O)CN1CCN(CC(=O)O)CCN(CC(=O)O)CCN(CC(=O)O)CC1 [[^177Lu]Lu-DOTA-MGS5, metal not drawn, reference compound] is ____.
0.667

----------
# method: Biodistribution 4 h p.i. in A431-CCK2R/A431-mock xenografted BALB/c nude mice
# Assay type: in vivo
# study conditions: female, BALB/c nude, mouse, in vivo, iv, 20 pmol, total radioactivity, uptake in liver
# Protocol: Then, after 7–11 days, when visible tumor xenografts were formed, groups of 5 mice were injected intravenously via a lateral tail vein with ~0.5 MBq of radiolabeled peptide, corresponding to 20 pmol of peptide, in a total volume of ~150 µL in PBS/0.5% BSA. […] For quantification, a 1:1, 1:10 and 1:50 standard was prepared using aliquots of the injection solution mixed with PBS/0.5% BSA. […] Results were expressed as percentage of injected activity per gram of tissue (%IA/g).
metric: tissue uptake at 4 h
Give the number first and the unit second.

State the recorded tissue uptake at 4 h for this entry: CCCC[C@@H](C(=O)N[C@@H](CC(=O)O)C(=O)N[C@@H](Cc1cccc2ccccc12)C(N)=O)N(C)C(=O)[C@H](Cc1c[nH]c2ccccc12)NC(=O)CCNC(=O)CC(O)CNC(=O)CC(O)CNC(=O)CN1CCN(CC(=O)O)CCN(CC(=O)O)CCN(CC(=O)O)CC1 (stereo partly shown) [[^177Lu]Lu-2, metal not drawn]
1.43 %ID/g

----------
# method: in vivo
# Parameters: species or system mice
# study conditions: female, BALB/c nude, mouse, iv, 20 pmol, total radioactivity, uptake in kidneys
metric: tissue uptake at 24 h (%ID/g)
One number for each entry, in %ID/g.

# get_value(readout='tissue uptake at 24 h', item= CCCC[C@@H](C(=O)N[C@@H](CC(=O)O)C(=O)N[C@@H](Cc1cccc2ccccc12)C(N)=O)N(C)C(=O)[C@H](Cc1c[nH]c2ccccc12)NC(=O)CCNC(=O)CC(O)CNC(=O)CC(O)CNC(=O)CN1CCN(CC(=O)O)CCN(CC(=O)O)CCN(CC(=O)O)CC1 (stereo partly shown) [[^177Lu]Lu-2, metal not drawn] )
1.32

----------
# method: Biodistribution 4 h p.i. in A431-CCK2R/A431-mock xenografted BALB/c nude mice
# Format: in vivo
# study conditions: female, BALB/c nude, mouse, in vivo, iv, 20 pmol, total radioactivity, uptake in stomach
metric: tissue uptake at 4 h (%ID/g)
Numbers only, in %ID/g.

Please give the measured tissue uptake at 4 h for this compound: CCCC[C@@H](C(=O)N[C@@H](CC(=O)O)C(=O)N[C@@H](Cc1cccc2ccccc12)C(N)=O)N(C)C(=O)[C@H](Cc1c[nH]c2ccccc12)NC(=O)CCNC(=O)CC(O)CNC(=O)CC(O)CNC(=O)CN1CCN(CC(=O)O)CCN(CC(=O)O)CCN(CC(=O)O)CC1 (stereo partly shown) [[^177Lu]Lu-2, metal not drawn]
4.3

----------
# method: in vivo
# Set-up: species or system mice
# study conditions: female, BALB/c nude, mouse, iv, 20 pmol, total radioactivity, uptake in A431-CCK2R xenografts
metric: tissue uptake at 168 h (%ID/g)
Give bare numbers, in %ID/g.

Value lookup for tissue uptake at 168 h; key = CCCC[C@@H](C(=O)N[C@@H](CC(=O)O)C(=O)N[C@@H](Cc1cccc2ccccc12)C(N)=O)N(C)C(=O)[C@H](Cc1c[nH]c2ccccc12)NC(=O)CCNC(=O)CC(O)CNC(=O)CC(O)CNC(=O)CN1CCN(CC(=O)O)CCN(CC(=O)O)CCN(CC(=O)O)CC1 (stereo partly shown) [[^177Lu]Lu-2, metal not drawn]
1.23
